Reference for the values: ChEMBL document CHEMBL3886610

# studySystem: UniProt:P56817
# Sequence (P56817 whole entry): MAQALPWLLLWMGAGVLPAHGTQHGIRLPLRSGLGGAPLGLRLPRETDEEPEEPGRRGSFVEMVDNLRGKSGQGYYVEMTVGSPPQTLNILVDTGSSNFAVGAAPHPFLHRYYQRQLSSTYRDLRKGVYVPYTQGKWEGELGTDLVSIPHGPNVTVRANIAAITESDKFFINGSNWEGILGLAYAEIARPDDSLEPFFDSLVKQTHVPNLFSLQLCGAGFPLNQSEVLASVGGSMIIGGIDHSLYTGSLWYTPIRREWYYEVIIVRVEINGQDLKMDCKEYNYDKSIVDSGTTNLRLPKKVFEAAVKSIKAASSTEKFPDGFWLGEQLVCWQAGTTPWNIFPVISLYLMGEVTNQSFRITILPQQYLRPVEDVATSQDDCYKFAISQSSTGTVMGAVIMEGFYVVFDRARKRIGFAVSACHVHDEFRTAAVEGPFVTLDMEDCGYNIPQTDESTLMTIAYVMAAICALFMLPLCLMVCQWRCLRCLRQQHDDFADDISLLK
# assayProtocol: In Vitro BACE Cell-Based Assay: The cell-based assay measures inhibition or reduction of Aβ40 in conditioned medium of test compound treated cells expressing amyloid precursor protein. Cells stably expressing Amyloid Precursor Protein (APP) were plated at a density of 40K cells/well in 96 well plates (Costar). The cells were cultivated for 24 hours at 37° C. and 5% CO2 in DMEM supplemented with 10% FBS. The test compounds were then added to cells in 10-point dose response concentrations with the starting concentration being either 100 uM or 10 uM. The compounds were diluted from stock solutions in DMSO and the final DMSO concentration of the test compounds on cells was 0.1%. After 24 h of incubation with the test compounds the supernatant conditioned media was collected and the Aβ 40 levels were determined using a sandwich ELISA.
measuredAttribute: IC50
The reply should read as a number followed by its unit.

Challenge: Answer with the recorded IC50 for the compound listed here: C#CCOc1ccc(C(=O)Nc2cc(F)c(F)c([C@]3(C)C[C@@H](C(F)(F)F)OC(N)=N3)c2)nc1
Response given: 12 nM

New cases:
Challenge: Assign IC50 to the following record: COC(=O)c1ccnc(Oc2ccc(F)c([C@]3(CF)C[C@@H](C(F)(F)F)OC(N)=N3)c2)c1
Response given: 3560 nM

Challenge: Provide IC50 value for the following compound: Cc1cc(OCC2CC2)cnc1C(=O)Nc1ccc(F)c([C@]2(CF)C[C@@H](C(F)(F)F)OC(N)=N2)c1
Response given: 487 nM

---

# studySystem: Cathepsin D (Homo sapiens, UniProt P07339)
# Sequence (P07339 65-162 limits assumed): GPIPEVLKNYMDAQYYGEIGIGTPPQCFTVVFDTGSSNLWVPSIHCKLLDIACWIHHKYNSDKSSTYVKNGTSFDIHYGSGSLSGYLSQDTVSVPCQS
# Sequence (P07339 169-412 limits assumed): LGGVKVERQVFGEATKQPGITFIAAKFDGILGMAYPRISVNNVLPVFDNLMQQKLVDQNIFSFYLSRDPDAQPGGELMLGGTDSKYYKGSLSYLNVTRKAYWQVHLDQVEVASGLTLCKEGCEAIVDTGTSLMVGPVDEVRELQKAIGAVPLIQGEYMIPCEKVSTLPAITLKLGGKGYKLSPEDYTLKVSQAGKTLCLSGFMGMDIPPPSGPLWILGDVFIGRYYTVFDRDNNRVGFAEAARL
# assayProtocol: In Vitro Enzymatic Cathepsin D FRET Assay: Recombinant Cat D was expressed in CHO cells. The assay buffer for CathepsinD is 0.05 M citrate pH 3.5, 10% DMSO final, 5 mM CHAPS. The Cat D enzyme (9 nM) is pre-incubated for one hour with inhibitors, typically in about 1 uL of DMSO according to a serial dilution, is added thereto. The assays are effectively started by the addition of different FRET substrates (20 nM for Cat D) and the combination is incubated for one hour. The FRET assay is terminated with by addition of Tris buffer, which raises the pH to neutrality, and the fluorescence is determined. The FRET substrate is a peptide with commercially available fluorophore and quencher, on opposite sides of the BACE cleavage site. […] Proteolytic cleavage of the FRET substrate releases quenching of fluorescence (Cat D excitation 500 nm and emission 580 nm).
# Assay type: cell-based
# conditionDescription: cho
measuredAttribute: IC50

Challenge: Provide only the value of recorded IC50 for Cc1cc(OCC2CC2)cnc1C(=O)Nc1ccc(F)c([C@]2(CF)C[C@@H](C(F)(F)F)OC(N)=N2)c1
Response given: > 400 µM

---

# studySystem: Cathepsin D (Homo sapiens)
# assayProtocol: In Vitro Enzymatic Cathepsin D FRET Assay: Recombinant Cat D was expressed in CHO cells. The assay buffer for CathepsinD is 0.05 M citrate pH 3.5, 10% DMSO final, 5 mM CHAPS. The Cat D enzyme (9 nM) is pre-incubated for one hour with inhibitors, typically in about 1 uL of DMSO according to a serial dilution, is added thereto. The assays are effectively started by the addition of different FRET substrates (20 nM for Cat D) and the combination is incubated for one hour. The FRET assay is terminated with by addition of Tris buffer, which raises the pH to neutrality, and the fluorescence is determined. The FRET substrate is a peptide with commercially available fluorophore and quencher, on opposite sides of the BACE cleavage site. […] Proteolytic cleavage of the FRET substrate releases quenching of fluorescence (Cat D excitation 500 nm and emission 580 nm).
# Format: cell-based
measuredAttribute: IC50 (µM)
Give just the numeric value; µM need not be written.

Challenge: Answer with the recorded IC50 of C#CCOc1ccc(C(=O)Nc2cc(F)c(F)c([C@]3(C)C[C@@H](C(F)(F)F)OC(N)=N3)c2)nc1 only.
Response given: 1190
